assay: Effect of additives on MF solubility in 0.2 M Captisol solution; assay type: physicochemical; conditions: aqueous with cosolvent or surfactant or cyclodextrin, 0.2 M Captisol + 2.1% w/v Glycerin
Measured Metric: solubility (µg/mL)
Please reply with the bare figure in µg/mL and do not write the unit itself.

For C[C@@H]1C[C@H]2[C@@H]3CCC4=CC(=O)C=C[C@]4(C)[C@@]3(Cl)[C@@H](O)C[C@]2(C)[C@@]1(OC(=O)c1ccco1)C(=O)CCl [MF, mometasone furoate] , what is its reported solubility? 220

----------
experiment: Microemulsion equilibrium solubility determination of mometasone furoate; assay type: physicochemical; conditions: SOLUTOL HS-15-based microemulsion, aqueous with cosolvent or surfactant or cyclodextrin, thermodynamic from solid, 20% SOLUTOL HS-15 microemulsions with varying amounts of different oils; 72 hour shaking; read-out: drug solubility (equilibrium)
Measured Metric: solubility at 72 h

So what does the record say about solubility at 72 h for C[C@@H]1C[C@H]2[C@@H]3CCC4=CC(=O)C=C[C@]4(C)[C@@]3(Cl)[C@@H](O)C[C@]2(C)[C@@]1(OC(=O)c1ccco1)C(=O)CCl [MF, mometasone furoate] ? 300 to 600 µg/mL

Source listed as patent US20120022032A1.
